# Tested on: HeLa
# assay protocol: Growth inhibition of human HeLa cells after 48 hrs by MTT assay
# Assay type: functional
readout type: GI50 (µM)
Just the number in µM, nothing appended.

Fill blank: measured GI50 of the molecule `CCc1ccc(OCC(=O)Nc2cc(B(O)O)ccc2O)cc1` is ____. 14.9

Proceed to `CC1(C)OB(c2ccc(O)c(NC(=O)COc3ccc(-c4ccccc4)cc3)c2)OC1(C)C` 5.8

Proceed to `Cc1ccc(OCC(=O)Nc2cc(B3OC(C)(C)C(C)(C)O3)ccc2O)cc1` 17.7
